system-name: T1, biotinylated recombinant human FAP (human, UniProt Q12884 26-760, biotinylated)
T1 construct: also called biotinylated human FAP
test-protocol: SPR (Biacore)
So I've got a bunch of binders here, and I need their koff values.
Please give a number only; it is taken to be in s⁻¹.

Q: Can you share its koff? I mean this binder: P1AE1693_Fab, humanized anti-FAP clone 212 variant VH1G2a/VL1G2a (Fab, V domains shown, Fab) VH: QVQLVQSGAEVKKPGASVKVSCKASGYTLTDYNMDWVRQAPGKSLEWIGDIYPNTGGTIYNQKFKGRVTMTIDKSTSTVYMELSSLRSEDTAVYYCTRFRGIHYAMDYWGQGTTVTVSS VL: EIVLTQSPATLSLSPGERATLSCRASESVDNYGLSFINWFQQKPGQPPRLLIYGTSNRGSGIPARFSGSGSGTDFTLTISSLEPEDFAVYFCQQSNEVPYTFGGGTKVEIK
A: 7.18e-05

Q: Can you share its koff? I mean this binder: P1AE1690_Fab, humanized anti-FAP clone 212 variant VH1G2a/VL1G1a (Fab, V domains shown, Fab) VH: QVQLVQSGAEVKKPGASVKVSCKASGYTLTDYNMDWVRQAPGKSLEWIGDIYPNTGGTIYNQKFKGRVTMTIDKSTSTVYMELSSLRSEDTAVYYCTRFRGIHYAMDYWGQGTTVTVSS VL: EIVLTQSPATLSLSPGERATLSCRASESVDNYGLSFINWFQQKPGQAPRLLIYGTSNRGSGIPARFSGSGSGTDFTLTISSLEPEDFAVYFCQQSNEVPYTFGGGTKVEIK
A: 6.3e-05

Q: Can you share its koff? I mean this binder: P1AE1702_Fab, humanized anti-FAP clone 212 variant with VL2G2a (Fab, V domains shown, Fab) VH: EVQLLESGGGLVQPGGSLRLSCAASGYTLTDYNMDWVRQAPGKGLEWVGDIYPNTGGTIYNQKFKGRFTISIDKSKNTAYLQMNSLRAEDTAVYYCTRFRGIHYAMDYWGQGTTVTVSS VL: DIQMTQSPSSLSASVGDRVTITCRASESVDNYGLSFINWFQQKPGQPPKLLIYGTSNRGSGVPSRFSGSGSGTDFTLTISSLQPEDFAMYFCQQSNEVPYTFGGGTKVEIK
A: 0.000107

Q: Can you share its koff? I mean this binder: P1AE1689_Fab, humanized anti-FAP clone 212 variant VH1G1a/VL1G1a (Fab, V domains shown, Fab) VH: QVQLVQSGAEVKKPGASVKVSCKASGYTLTDYNMDWVRQAPGQGLEWIGDIYPNTGGTIYNQKFKGRVTMTIDTSTSTVYMELSSLRSEDTAVYYCTRFRGIHYAMDYWGQGTTVTVSS VL: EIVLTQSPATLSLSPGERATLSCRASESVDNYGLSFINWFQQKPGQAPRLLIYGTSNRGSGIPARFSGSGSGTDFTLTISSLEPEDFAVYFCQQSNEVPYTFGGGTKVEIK
A: 4.21e-05
